Origin of measurements: PubChem BioAssay AID694

Biological target: Estrogen receptor (Homo sapiens)
Assay: blockers of coactivator recruitment to ERα – biochemical, LOPAC library, TR-FRET, primary screen (AID 694);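 also: receptor was agonist-bound with estradiol present during the assay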
Settings: TR-FRET ERalpha-coactivator peptide binding, at 45 µM, stronger effect = higher value
Out of some 1,300 compounds screened, about 25 (2%) were called active. The full list was thinned out, with actives kept by preference.
OBSERVED_PROPERTY: inhibition

Cc1cccc(C)c1OCC(N)C(C)C (stereo not drawn) has a reported inhibition of -0.93% (inactive)

CC(=O)O[C@H]1CC2(C)[C@@H](C[C@@H](O)[C@H]3[C@@]4(C)CC[C@@H](O)[C@@H](C)[C@@H]4CC[C@@]32C)C1=C(CCC=C(C)C)C(=O)O (stereo partly drawn) has a reported inhibition of 80.4% (inactive)

C[N+](C)(C)CC=O has a reported inhibition of 0.73% (inactive)

CN(C)CCCCSC(=N)N has a reported inhibition of -2.28% (inactive)

CC[N+](CC)(CC)CC(=O)Nc1c(C)cccc1C has a reported inhibition of -2.22% (inactive)

CC(=O)[C@H]1CCC2C3CC=C4C[C@@H](OS(=O)(=O)O)CC[C@]4(C)C3CC[C@@]21C (stereo partly drawn) has a reported inhibition of 0.32% (inactive)

Cn1c(=O)c2[nH]c(C3CCCC3)nc2n(C)c1=O has a reported inhibition of 1.28% (inactive)

CC1=C(CC(=O)O)c2cc(F)ccc2/C1=C\c1ccc(S(C)(=O)=O)cc1 has a reported inhibition of 2.44% (inactive)

CC(=O)NCCc1ccc(O)c(O)c1 has a reported inhibition of -22% (inactive)

Nc1nc(SCc2ccc([N+](=O)[O-])cc2)c2ncn([C@@H]3O[C@H](CO)[C@H](O)C3O)c2n1 (stereo partly drawn) has a reported inhibition of -19.1% (inactive)

O=C(O)C1=CC(=C(c2ccc(O)c(C(=O)O)c2)c2ccc(O)c(C(=O)O)c2)C=CC1=O has a reported inhibition of 88.6% [fluorescence artefact?] (active)

Cc1cc(C)c(NC(=O)C[C@H](CC(=O)O)c2cccc3ccccc23)c(C(=O)N2CCC3(CCCC3)CC2)c1 has a reported inhibition of 4.81% (active)

CC(C)COCC(CN(Cc1ccccc1)c1ccccc1)N1CCCC1 (stereo not drawn) has a reported inhibition of -5.09% (inactive)

N#CC(Cc1ccc(O)c(O)c1)C(=O)N1CCc2ccccc21 (stereo not drawn) has a reported inhibition of 4.21% (inactive)

CC(=O)N1CCN(c2ccc(OC[C@H]3CO[C@](Cn4ccnc4)(c4ccc(Cl)cc4Cl)O3)cc2)CC1 has a reported inhibition of -0.23% (inactive)

NCCSSCCN has a reported inhibition of -10.9% (inactive)

OC[C@H]1O[C@@H](n2cnc3cncnc32)[C@H](O)[C@@H]1O has a reported inhibition of -0.26% (inactive)

CC(=O)N[C@@H](CS)C(=O)O has a reported inhibition of -7.68% (inactive)

CCN1/C(=C/C(C)=O)Sc2ccc(OC)cc21 has a reported inhibition of 0.62% (inactive)

CCCCCN(CCCCC)C(=O)C(CCC(=O)O)NC(=O)c1ccc(Cl)c(Cl)c1 (stereo not drawn) has a reported inhibition of 0.49% (inactive)

CN[C@H]1CC[C@@H](c2ccc(Cl)c(Cl)c2)c2ccccc21 has a reported inhibition of 4.49% (inactive)

CC(=O)SCC[N+](C)(C)C has a reported inhibition of 0.72% (inactive)

Cc1c(C)c2c(c(C)c1O)CCC(C)(CN1CCN(c3cc(N4CCCC4)nc(N4CCCC4)n3)CC1)O2 (stereo not drawn) has a reported inhibition of -11.9% (inactive)

CC[C@@H](C)[C@H]1O[C@]2(CC[C@@H]1C)C[C@@H]1C[C@@H](C/C=C(\C)[C@@H](O[C@H]3C[C@H](OC)[C@@H](O[C@H]4C[C@H](OC)[C@@H](O)[C@H](C)O4)[C@H](C)O3)[C@@H](C)/C=C/C=C3\CO[C@@H]4[C@H](O)C(C)=C[C@@H](C(=O)O1)[C@]34O)O2 has a reported inhibition of -0.86% (inactive)

O=c1[nH]c2cc(Cl)c(Cl)cc2[nH]c1=O has a reported inhibition of -4.07% (inactive)

O=S(=O)(O)C1CCNCC1 has a reported inhibition of 1.25% (inactive)

NC(N)=NCCCCN=C(N)N has a reported inhibition of -1.43% (inactive)

CCCCCCCCCCCCCCCC(=O)OC(CC(=O)O)C[N+](C)(C)C (stereo not drawn) has a reported inhibition of 12.7% (inactive)

Nc1nc(Cl)nc2c1ncn2[C@@H]1O[C@H](COP(=O)(O)OP(=O)(O)OP(=O)(O)O)[C@H](O)C1O (stereo partly drawn) has a reported inhibition of -8.59% (inactive)

[N-]=[N+]=Nc1ccc(C(=O)CSC[C@H](NC(=O)CC[C@H](N)C(=O)O)C(=O)NCC(=O)O)cc1 has a reported inhibition of 75.4% [fluorescence artefact?] (active)

COc1ccccc1N1CCN(CCN(C(=O)c2ccc(I)cc2)c2ccccn2)CC1 has a reported inhibition of 10.1% (inactive)

NC(N)=NC(N)=Nc1cccc(Cl)c1 has a reported inhibition of -5.64% (inactive)

CC(CCc1ccc(O)cc1)NCCc1ccc(O)c(O)c1 (stereo not drawn) has a reported inhibition of -5.5% (inactive)

COC(=O)[C@H]1[C@H]2C[C@H]3c4[nH]c5ccccc5c4CCN3C[C@H]2CC[C@@H]1O has a reported inhibition of 1.18% (inactive)

CCSC(=N)N has a reported inhibition of -21.8% (inactive)

NC(=NCc1ccc(Cl)c(Cl)c1)NC(=O)c1nc(Cl)c(N)nc1N has a reported inhibition of 2.8% (inactive)

COc1ccccc1N1CCN(CCN(C(=O)c2ccc(F)cc2)c2ccccn2)CC1 has a reported inhibition of -4.33% (inactive)

O=c1[nH]cnc2[nH]ncc12 has a reported inhibition of -22.8% (inactive)

Oc1cc(O)c2c(c1)O[C@H](c1ccc(O)c(O)c1)[C@@H](O)C2 has a reported inhibition of 26.6% (inactive)

CCCn1c(=O)c2c(ncn2C)n(CCC)c1=O has a reported inhibition of 5.51% (inactive)

C=CCN1CCc2c(cc(O)c(O)c2Cl)C(c2ccccc2)C1 (stereo not drawn) has a reported inhibition of -1.29% (inactive)

CC#C[C@]1(O)CC[C@H]2[C@@H]3CCC4=CC(=O)CCC4=C3[C@@H](c3ccc(N(C)C)cc3)C[C@@]21C has a reported inhibition of 4.52% (inactive)

CC(CCc1ccccc1)NCC(O)c1ccc(O)c(C(N)=O)c1 (stereo not drawn) has a reported inhibition of 5.4% (inactive)
